// values below are reported EC50 at 72 h
Experiment: In vitro cytotoxicity assay in L-6 cells (Alamar Blue)
Settings: rat, L-6 cells (rat skeletal myoblasts)

Here are 2 compounds together with their reported answers.
(Q) Fill in EC50 at 72 h for record Cc1cc(/C=C2\S/C(=N\c3ccccc3)N(C3CCCCC3)C2=O)c(C)n1C
(A) > 230 µM

(Q) Fill in EC50 at 72 h for record Cc1cc(/C=C2\NC(=O)NC2=O)c(C)n1-c1ccccc1
(A) > 320 µM

Now examine the next entry.
(Q) Fill in EC50 at 72 h for record CN1C(=O)/C(=C/c2ccn(Cc3ccccc3)c2)S/C1=N\c1ccccc1
(A) > 240 µM

====

Experiment: In vitro cytotoxicity assay in L-6 cells (Alamar Blue)
Settings: rat, L-6 cells (rat skeletal myoblasts)
readout: EC50 at 72 h

Here are 5 compounds together with their reported answers.
(Q) Fill in EC50 at 72 h for record C/N=C1\S/C(=C\c2ccn(Cc3ccccc3)c2)C(=O)N1C
(A) > 290 µM

(Q) Fill in EC50 at 72 h for record Cc1cc(/C=C2/SC(=O)NC2=O)c(C)n1-c1ccccc1C(F)(F)F
(A) 43 µM

(Q) Fill in EC50 at 72 h for record C/N=C1\S/C(=C\c2cc(C)n(-c3ccc(N4CCOCC4)cc3)c2C)C(=O)N1C
(A) > 220 µM

(Q) Fill in EC50 at 72 h for record Cc1cc(/C=C2\S/C(=N\c3ccccc3)N(C3CCCCC3)C2=O)c(C)n1-c1ccc(C(F)(F)F)cc1
(A) > 170 µM

(Q) Fill in EC50 at 72 h for record Cc1cc(/C=C2\S/C(=N\c3ccccc3)N(C3CCCCC3)C2=O)c(C)n1-c1ccc(N2CCOCC2)cc1
(A) > 170 µM

---
(Q) Fill in EC50 at 72 h for record O=C1/C(=C/c2cnn(-c3ccccc3C(F)(F)F)c2)S/C(=N\c2ccccc2)N1C1CCCCC1
(A) > 180 µM

(Q) Fill in EC50 at 72 h for record Cc1cc(/C=C2\S/C(=N\c3ccccc3)N(C)C2=O)c(C)n1-c1ccc(N2CCOCC2)cc1
(A) 120 µM

(Q) Fill in EC50 at 72 h for record Cc1cc(/C=C2\S/C(=N\c3ccccc3)N(C3CCCCC3)C2=O)c(C)n1-c1ccccc1C(F)(F)F
(A) > 170 µM

====

Assay: Metabolic stability, NADPH-dependent degradation in human liver microsomes
Format: in vitro ADME
Settings: liver microsomes; human, scaled from in vitro CLint; read-out: Microsome predicted in vivo CLint
readout: CLint scaled at 1 µM
Note: state the figure and append the unit.

(Q) Fill in CLint scaled at 1 µM for record Cc1cc(/C=C2\S/C(=N\c3ccccc3)N(C3CCCCC3)C2=O)c(C)n1-c1ccc(F)cc1
(A) 42 mL/min/kg

====

// values below are reported EC50 at 72 h
Test: In vitro cytotoxicity assay in L-6 cells (Alamar Blue)
Conditions: rat, L-6 cells (rat skeletal myoblasts)
Give just the numeric value; µM need not be written.

Here are 2 compounds together with their reported answers.
(Q) Fill in EC50 at 72 h for record C/N=C1\S/C(=C\c2ccn(-c3ccccc3C(F)(F)F)c2)C(=O)N1C
(A) 4

(Q) Fill in EC50 at 72 h for record C/N=C1\S/C(=C\c2cnn(-c3ccccc3C(F)(F)F)c2)C(=O)N1C
(A) 34

Now examine the next entry.
(Q) Fill in EC50 at 72 h for record Cc1cc(/C=C2\S/C(=N\c3ccccc3)N(C3CCCCC3)C2=O)c(C)n1CCN1CCOCC1
(A) 71

====

Assay: In vitro cytotoxicity assay in L-6 cells (Alamar Blue)
Details: rat, L-6 cells (rat skeletal myoblasts)
// values below are reported EC50 at 72 h

(Q) Fill in EC50 at 72 h for record Cc1cc(/C=C2\S/C(=N\c3ccccc3)N(C3CCCCC3)C2=O)c(C)n1-c1cccc(C(F)(F)F)c1 [Compound 24]
(A) > 170 µM

(Q) Fill in EC50 at 72 h for record CN1C(=O)/C(=C/c2cnn(-c3ccccc3C(F)(F)F)c2)S/C1=N\c1ccccc1 [Compound 38]
(A) 180 µM

(Q) Fill in EC50 at 72 h for record Cc1cc(/C=C2\SC(=O)NC2=O)c(C)n1-c1ccccc1C(F)(F)F [Compound 44]
(A) 64 µM

(Q) Fill in EC50 at 72 h for record O=C1/C(=C/c2ccn(-c3ccccc3C(F)(F)F)c2)S/C(=N\c2ccccc2)N1C1CCCCC1 [Compound 28]
(A) > 180 µM

(Q) Fill in EC50 at 72 h for record C/N=C1\S/C(=C\c2cc(C)n(CCN3CCOCC3)c2C)C(=O)N1C [Compound 40]
(A) 78 µM

(Q) Fill in EC50 at 72 h for record Cc1cc(/C=C2\S/C(=N\c3ccccc3)N(C3CCCCC3)C2=O)c(C)n1-c1ccccc1 [Compound 22]
(A) > 200 µM

(Q) Fill in EC50 at 72 h for record O=C1/C(=C/c2ccn(Cc3ccccc3)c2)S/C(=N\c2ccccc2)N1C1CCCCC1 [Compound 29]
(A) > 200 µM

(Q) Fill in EC50 at 72 h for record Cc1cc(/C=C2\S/C(=N\c3ccccc3)N(C3CCCCC3)C2=O)c(C)n1-c1ccc(F)cc1 [Compound 20]
(A) > 190 µM

====

Assay: Chromatographic LogD estimation (gLogD)
Format: physicochemical
Conditions: chromatographic gLogD technique, pH 7.4
readout: chromatographic logD
Form rule: numeric answer, no unit written next to it.

(Q) Fill in chromatographic logD for record Cc1cc(/C=C2\S/C(=N\c3ccccc3)N(C3CCCCC3)C2=O)c(C)n1-c1ccc(F)cc1 [Compound 20]
(A) 7.1

====

Assay: Metabolic stability, NADPH-dependent degradation in mouse liver microsomes
Format: in vitro ADME
Conditions: liver microsomes; mouse, scaled from in vitro CLint; read-out: Microsome predicted in vivo CLint
Description: Compound 20 (1 µM) was incubated at 37 ° C with human or mouse liver microsomes (BD Gentest, Discovery Labware Inc., Woburn, MA). […] The relative loss of parent compound and formation of metabolic products were monitored by LC/MS using a Waters/Micromass LCT instrument. […]
readout: CLint scaled at 1 µM (mL/min/kg)
Give just the numeric value; mL/min/kg need not be written.

(Q) Fill in CLint scaled at 1 µM for record Cc1cc(/C=C2\S/C(=N\c3ccccc3)N(C3CCCCC3)C2=O)c(C)n1-c1ccc(F)cc1
(A) 216

====

readout: melting point

Here are 2 molecules together with their reported answers.
(Q) Fill in melting point for record Cc1cc(/C=C2/SC(=O)NC2=O)c(C)n1-c1ccccc1C(F)(F)F
(A) 205 to 210 °C

(Q) Fill in melting point for record Cc1cc(/C=C2\S/C(=N\c3ccccc3)N(C3CCCCC3)C2=O)c(C)n1C
(A) 184 to 185 °C

---
(Q) Fill in melting point for record C/N=C1\S/C(=C\c2cc(C)n(-c3ccc(N4CCOCC4)cc3)c2C)C(=O)N1C
(A) 333 to 334 °C

(Q) Fill in melting point for record Cc1cc(/C=C2\S/C(=N\c3ccccc3)N(C)C2=O)c(C)n1-c1ccc(N2CCOCC2)cc1
(A) 288 °C

(Q) Fill in melting point for record Cc1cc(/C=C2\S/C(=N\c3ccccc3)N(C3CCCCC3)C2=O)c(C)n1-c1ccccc1
(A) 198 to 199 °C

(Q) Fill in melting point for record Cc1cc(/C=C2\S/C(=N\c3ccccc3)N(C3CCCCC3)C2=O)c(C)n1-c1ccc(Br)cc1
(A) 243 to 244 °C

(Q) Fill in melting point for record Cc1cc(/C=C2\SC(=O)N(C)C2=O)c(C)n1-c1ccccc1
(A) 195 to 196 °C

(Q) Fill in melting point for record C/N=C1\S/C(=C\c2ccn(Cc3ccccc3)c2)C(=O)N1C
(A) 128 to 130 °C

(Q) Fill in melting point for record C/N=C1\S/C(=C\c2ccn(-c3ccccc3C(F)(F)F)c2)C(=O)N1C
(A) 54 to 55 °C

(Q) Fill in melting point for record Cc1cc(C=C2C(=O)NC(=O)NC2=O)c(C)n1-c1ccccc1C(F)(F)F
(A) > 300 °C

(Q) Fill in melting point for record Cc1cc(/C=C2/SC(=S)NC2=O)c(C)n1-c1ccccc1C(F)(F)F
(A) 255 to 258 °C

(Q) Fill in melting point for record Cc1cc(/C=C2\S/C(=N\c3ccccc3)N(C3CCCCC3)C2=O)c(C)n1-c1ccc(N2CCOCC2)cc1
(A) 155 to 156 °C

(Q) Fill in melting point for record Cc1cc(C=C2C(=O)NC(=S)NC2=O)c(C)n1-c1ccccc1C(F)(F)F
(A) > 300 °C

(Q) Fill in melting point for record Cc1cc(/C=C2\S/C(=N\c3ccccc3)N(C3CCCCC3)C2=O)c(C)n1-c1ccccc1C(F)(F)F
(A) 125 to 127 °C

(Q) Fill in melting point for record Cc1cc(/C=C2/SC(=N)NC2=O)c(C)n1-c1ccccc1C(F)(F)F
(A) 285 to 290 °C

(Q) Fill in melting point for record Cc1cc(/C=C2\S/C(=N\c3ccccc3)N(C)C2=O)c(C)n1-c1ccccc1
(A) 203 to 205 °C

(Q) Fill in melting point for record Cc1cc(/C=C2\S/C(=N\c3ccccc3)N(C3CCCCC3)C2=O)c(C)n1-c1ccc(C(F)(F)F)cc1
(A) 218 to 220 °C

(Q) Fill in melting point for record CN1C(=O)/C(=C/c2ccn(Cc3ccccc3)c2)S/C1=N\c1ccccc1
(A) 155 to 156 °C

(Q) Fill in melting point for record Cc1cc(/C=C2\NC(=O)NC2=O)c(C)n1-c1ccccc1
(A) 267 to 270 °C (dec.)

(Q) Fill in melting point for record C/N=C1\S/C(=C\c2cnn(-c3ccccc3C(F)(F)F)c2)C(=O)N1C
(A) 170 to 172 °C
